system: Anesthetized Dogs; assay: Mean arterial pressure (MAP) in anesthetized dogs; assay type: in vivo, dog; settings: iv dose causing a maximum increase in MAP of 20 mm Hg, anesthetized female dogs
Rule: measured Mean MAP ED20 below 200 nmol/kg gets 1; anything equal to or greater than 200 nmol/kg gets 0.

[
  {
    "compound": "CS(=O)(=O)Nc1ccc(F)c2c1CCCC2c1c[nH]cn1.O=C(O)/C=C\\C(=O)O (centres unmarked)",
    "system.name": "Anesthetized Dogs",
    "assigned.class": 0
  },
  {
    "compound": "Cl.Cn1cnc(C2CCCc3c(NS(C)(=O)=O)cccc32)c1 (centres unmarked)",
    "system.name": "Anesthetized Dogs",
    "assigned.class": 0
  },
  {
    "compound": "C=C(c1cccc(NS(=O)(=O)CC)c1)c1c[nH]cn1",
    "system.name": "Anesthetized Dogs",
    "assigned.class": 0
  },
  {
    "compound": "CCS(=O)(=O)Nc1cccc(Cc2c[nH]cn2)c1.O=C(O)/C=C\\C(=O)O",
    "system.name": "Anesthetized Dogs",
    "assigned.class": 1
  },
  {
    "compound": "CS(=O)(=O)Nc1cccc2c1CCC[C@H]2c1c[nH]cn1",
    "system.name": "Anesthetized Dogs",
    "assigned.class": 1
  },
  {
    "compound": "CS(=O)(=O)Nc1cccc2c1CCCC2c1c[nH]cn1.Cl (centres unmarked)",
    "system.name": "Anesthetized Dogs",
    "assigned.class": 1
  },
  {
    "compound": "O=C(Nc1cccc2c1CCCC2c1c[nH]cn1)C(F)(F)F (centres unmarked)",
    "system.name": "Anesthetized Dogs",
    "assigned.class": 0
  },
  {
    "compound": "CCS(=O)(=O)Nc1cccc2c1CCCC2c1c[nH]cn1.O=C(O)/C=C\\C(=O)O (centres unmarked)",
    "system.name": "Anesthetized Dogs",
    "assigned.class": 1
  },
  {
    "compound": "CC(=O)Nc1cccc2c1CCCC2c1c[nH]cn1.O=C(O)/C=C\\C(=O)O (centres unmarked)",
    "system.name": "Anesthetized Dogs",
    "assigned.class": 0
  },
  {
    "compound": "O=C(O)/C=C\\C(=O)O.O=S(=O)(CC(F)(F)F)Nc1cccc2c1CCCC2c1c[nH]cn1 (centres unmarked)",
    "system.name": "Anesthetized Dogs",
    "assigned.class": 0
  },
  {
    "compound": "CS(=O)(=O)Nc1cccc2c1CCC[C@@H]2c1c[nH]cn1",
    "system.name": "Anesthetized Dogs",
    "assigned.class": 0
  }
]

* * *

target: α1B (rat spleen) (Rattus norvegicus, UniProt P15823); construct: α1B (rat spleen) and α1D (rat aorta) receptors; from tissue; host or cells: rat spleen; test: Agonist contraction of smooth muscle tissue, rat spleen; type: cell-based; settings: rat spleen; read-out: Agonist Tissue Response (pD2) α1B (rat spleen) (converted)
Sequence (P15823 whole entry): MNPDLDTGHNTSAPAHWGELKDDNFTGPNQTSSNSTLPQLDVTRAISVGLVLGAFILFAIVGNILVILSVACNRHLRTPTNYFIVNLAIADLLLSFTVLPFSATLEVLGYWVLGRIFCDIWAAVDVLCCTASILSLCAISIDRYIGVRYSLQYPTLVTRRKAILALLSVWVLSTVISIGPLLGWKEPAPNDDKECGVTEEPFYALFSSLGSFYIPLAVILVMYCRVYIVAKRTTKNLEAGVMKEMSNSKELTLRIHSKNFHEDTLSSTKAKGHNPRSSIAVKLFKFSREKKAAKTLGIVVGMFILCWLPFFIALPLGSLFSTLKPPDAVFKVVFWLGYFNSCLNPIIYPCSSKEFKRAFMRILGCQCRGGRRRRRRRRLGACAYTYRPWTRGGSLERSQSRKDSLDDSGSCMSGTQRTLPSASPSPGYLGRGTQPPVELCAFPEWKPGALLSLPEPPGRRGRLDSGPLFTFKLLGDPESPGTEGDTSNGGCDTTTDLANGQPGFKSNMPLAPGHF

[
  {
    "compound": "O=C(O)/C=C\\C(=O)O.O=S(=O)(CC(F)(F)F)Nc1cccc2c1CCCC2c1c[nH]cn1 (centres unmarked) [Example 20, maleate]",
    "value.prefix": ">",
    "EC50 / µM": 1000
  },
  {
    "compound": "CC(c1cccc(NS(C)(=O)=O)c1)c1c[nH]cn1.O=C(O)/C=C\\C(=O)O (centres unmarked) [Example 31, maleate]",
    "value.prefix": ">",
    "EC50 / µM": 1000
  },
  {
    "compound": "O=C(Nc1cccc2c1CCCC2c1c[nH]cn1)C(F)(F)F (centres unmarked)",
    "value.prefix": "=",
    "EC50 / µM": 3.39
  },
  {
    "compound": "COc1ccc(NS(C)(=O)=O)c2c1C(c1c[nH]cn1)CCC2 (centres unmarked)",
    "value.prefix": "=",
    "EC50 / µM": 18.2
  },
  {
    "compound": "CN(c1cccc2c1CCCC2c1c[nH]cn1)S(C)(=O)=O (centres unmarked)",
    "value.prefix": "=",
    "EC50 / µM": 2.24
  }
]

* * *

In this section we review reported EC50 values for a set of molecules.
biological target: α1D (rat aorta) (Rattus norvegicus, UniProt P23944); construct: α1B (rat spleen) and α1D (rat aorta) receptors; from tissue; host or cells: rat aorta strips, endothelium removed; assay: Agonist contraction of smooth muscle tissue, rat aorta; format: cell-based; settings: read-out: Agonist Tissue Response (pD2) α1D (rat aorta) (converted)
Sequence (P23944 whole entry): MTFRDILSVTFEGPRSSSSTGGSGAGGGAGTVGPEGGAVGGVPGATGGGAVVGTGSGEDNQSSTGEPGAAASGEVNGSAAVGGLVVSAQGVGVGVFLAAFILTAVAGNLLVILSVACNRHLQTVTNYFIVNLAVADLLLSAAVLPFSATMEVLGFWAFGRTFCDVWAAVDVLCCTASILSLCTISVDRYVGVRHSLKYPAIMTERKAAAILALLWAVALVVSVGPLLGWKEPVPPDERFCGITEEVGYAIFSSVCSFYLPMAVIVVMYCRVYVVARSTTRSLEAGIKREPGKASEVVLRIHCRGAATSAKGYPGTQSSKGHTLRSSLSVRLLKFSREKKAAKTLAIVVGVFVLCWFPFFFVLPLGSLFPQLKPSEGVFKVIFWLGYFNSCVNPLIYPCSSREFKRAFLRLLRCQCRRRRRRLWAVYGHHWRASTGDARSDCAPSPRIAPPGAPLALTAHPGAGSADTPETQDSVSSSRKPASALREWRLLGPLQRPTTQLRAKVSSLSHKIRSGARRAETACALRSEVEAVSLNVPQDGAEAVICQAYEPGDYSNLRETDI
Counter-ions that a name gives are not always drawn.

[
  {
    "molecule": "Cn1cncc1C1CCCc2c1ccc(O)c2NS(C)(=O)=O (stereo not shown) [Example 4, hydrochloride]",
    "EC50, µM": 95.5
  },
  {
    "molecule": "Cn1cnc(C2CCCc3c2ccc(O)c3NS(C)(=O)=O)c1 (stereo not shown) [Example 5, hydrochloride]",
    "EC50, µM": 3.31
  },
  {
    "molecule": "CS(=O)(=O)Nc1c(O)ccc2c1CCCC2c1c[nH]cn1 (stereo not shown) [Example 2, hydrochloride]",
    "EC50, µM": 1.91
  },
  {
    "molecule": "COc1ccc2c(c1NS(C)(=O)=O)CCCC2c1c[nH]cn1 (stereo not shown) [Example 1, hydrochloride]",
    "EC50, µM": 5.5
  }
]

* * *

# Ki annotations
target: α1A (rat submaxillary gland) (Rattus norvegicus, UniProt P43140); construct: α1A (rat submaxillary gland); from tissue; host or cells: rat submaxillary gland; experiment: Radioligand binding with [3H]-prazosin, α1A
Sequence (P43140 whole entry): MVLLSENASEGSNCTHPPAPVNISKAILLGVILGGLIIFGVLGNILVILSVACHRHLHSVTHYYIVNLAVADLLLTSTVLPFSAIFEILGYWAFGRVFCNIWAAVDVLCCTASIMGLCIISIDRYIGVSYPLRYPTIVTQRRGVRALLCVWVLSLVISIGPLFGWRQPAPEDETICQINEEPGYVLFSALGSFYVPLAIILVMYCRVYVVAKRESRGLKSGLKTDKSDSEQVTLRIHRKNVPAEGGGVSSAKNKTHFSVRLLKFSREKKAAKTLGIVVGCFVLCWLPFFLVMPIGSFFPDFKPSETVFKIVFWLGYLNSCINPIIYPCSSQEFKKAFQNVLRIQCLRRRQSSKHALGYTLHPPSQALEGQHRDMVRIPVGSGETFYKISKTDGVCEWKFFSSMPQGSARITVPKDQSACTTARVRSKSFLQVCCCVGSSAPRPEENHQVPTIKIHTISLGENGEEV
Where a name gives a salt, the structure may show the parent alone.
result.type: Ki (nM)

[
  {
    "compound": "CS(=O)(=O)Nc1c(O)ccc2c1CCCC2c1c[nH]cn1 (stereo not drawn) [Example 2, hydrochloride]",
    "measured.number": 36.1
  },
  {
    "compound": "COc1ccc2c(c1NS(C)(=O)=O)CCCC2c1c[nH]cn1 (stereo not drawn) [Example 1, hydrochloride]",
    "measured.number": 500
  },
  {
    "compound": "CCn1cnc(C2CCCc3c2ccc(O)c3NS(C)(=O)=O)c1.Cl (stereo not drawn) [Example 6, hydrochloride]",
    "measured.number": 2080
  },
  {
    "compound": "CCCn1cnc(C2CCCc3c2ccc(O)c3NS(C)(=O)=O)c1 (stereo not drawn) [Example 7, hydrochloride]",
    "measured.number": 661
  },
  {
    "compound": "Cn1cncc1C1CCCc2c1ccc(O)c2NS(C)(=O)=O (stereo not drawn) [Example 4, hydrochloride]",
    "measured.number": 24600
  },
  {
    "compound": "Cn1cnc(C2CCCc3c2ccc(O)c3NS(C)(=O)=O)c1 (stereo not drawn) [Example 5, hydrochloride]",
    "measured.number": 136
  }
]

* * *

Recorded Mean MAP ED20 for the following compounds
tested on: Anesthetized Dogs; assay: Mean arterial pressure (MAP) in anesthetized dogs; type: in vivo, dog; details: iv dose causing a maximum increase in MAP of 20 mm Hg, anesthetized female dogs

[
  {
    "compound": "COc1ccc(NS(C)(=O)=O)c2c1C(c1c[nH]cn1)CCC2 (centres unmarked)",
    "unit.info": "nmol/kg",
    "Mean MAP ED20": 1850
  },
  {
    "compound": "CN(c1cccc2c1CCCC2c1c[nH]cn1)S(C)(=O)=O (centres unmarked)",
    "unit.info": "nmol/kg",
    "Mean MAP ED20": 225
  },
  {
    "compound": "CCS(=O)(=O)Nc1cccc(Cc2c[nH]cn2)c1C.O=C(O)/C=C\\C(=O)O",
    "unit.info": "nmol/kg",
    "Mean MAP ED20": 202
  },
  {
    "compound": "CC(c1cccc(NS(C)(=O)=O)c1)c1c[nH]cn1.O=C(O)/C=C\\C(=O)O (centres unmarked)",
    "unit.info": "nmol/kg",
    "Mean MAP ED20": 234
  },
  {
    "compound": "O=S(=O)(CC(F)(F)F)Nc1cccc2c1CCCC2c1c[nH]cn1 (single isomer, unassigned; (+))",
    "unit.info": "nmol/kg",
    "Mean MAP ED20": 508
  },
  {
    "compound": "CS(=O)(=O)Nc1cccc(Cc2c[nH]cn2)c1.O=C(O)/C=C\\C(=O)O",
    "unit.info": "nmol/kg",
    "Mean MAP ED20": 52.3
  },
  {
    "compound": "Cc1c(Cc2c[nH]cn2)cccc1NS(C)(=O)=O.O=C(O)/C=C\\C(=O)O",
    "unit.info": "nmol/kg",
    "Mean MAP ED20": 158
  },
  {
    "compound": "CCS(=O)(=O)Nc1cccc2c1CCC2c1c[nH]cn1.O=C(O)/C=C\\C(=O)O (centres unmarked)",
    "unit.info": "nmol/kg",
    "Mean MAP ED20": 5.6
  }
]

Taken from patent US6503935B1.
